System: wild-type HIV-IIIB strain
Test: Antiviral analysis EGFP: anti-HIV activity in MT4 LTR-EGFP cells
Format: cell-based, HIV-1
Details: fluorescence of HIV-infected cells reduced by 50%, three days after infection
Below, each entry is listed with its recorded log10 of EC50.
Please note: log10 values; quantity EC50; unit nM.

Previously resolved entries follow.
CN(C)CCCOc1ccc2cc(C#N)c(=O)n(-c3ccc([N+](=O)[O-])cc3)c2c1    2.67
N#Cc1c(NCCCN2CCCC2)c2ccccc2n(-c2ccc([N+](=O)[O-])cc2)c1=O    3.31

Answer with reported log10 of EC50 of CN(C)CCOc1ccc2cc(C#N)c(=O)n(-c3ccc([N+](=O)[O-])cc3)c2c1 3.63

Answer with reported log10 of EC50 of Cc1ccc(-n2c(=O)c(C#N)cc3ccc(-c4cccn4C)cc32)cc1C#N 4.00

Answer with reported log10 of EC50 of N#Cc1c(N)c2ccc(-c3cscn3)cc2n(-c2ccc([N+](=O)[O-])cc2)c1=O 2.73

Answer with reported log10 of EC50 of N#Cc1cc2ccc(-c3cc[nH]n3)cc2n(-c2ccc([N+](=O)[O-])cc2)c1=O 2.20

Answer with reported log10 of EC50 of N#Cc1cc2ccc(-c3ccc[nH]3)cc2n(-c2ccc([N+](=O)[O-])cc2)c1=O 2.40

Answer with reported log10 of EC50 of N#Cc1cc2ccc(OCCCN)cc2n(-c2ccc([N+](=O)[O-])cc2)c1=O 3.03

###

Test system: MT4 CMV-EGFP cells
Assay: Cytotoxicity in mock-infected MT4 CMV-EGFP cells
Assay type: cell-based, human
Conditions: fluorescence reduced by 50%
Below, each entry is listed with its recorded CC50.

CCNCCCOc1ccc2cc(C#N)c(=O)n(-c3ccc([N+](=O)[O-])cc3)c2c1    69 µM
CC(=O)Nc1cccc(-c2ccc3cc(C#N)c(=O)n(-c4ccc(C)c(C#N)c4)c3c2)c1    > 100 µM
N#Cc1cc2ccc(-c3cccc(CN)c3)cc2n(-c2ccc([N+](=O)[O-])cc2)c1=O    24.7 µM
N#Cc1c(N)c2cc(F)c(Cl)cc2n(-c2ccc([N+](=O)[O-])cc2)c1=O    > 100 µM
Cc1ccc2c(N)c(C#N)c(=O)n(-c3ccc([N+](=O)[O-])cc3)c2c1    > 100 µM

Answer with reported CC50 of N#Cc1c(N)c2ccc(Cl)cc2n(-c2ccc3nonc3c2)c1=O > 100 µM

Answer with reported CC50 of N#Cc1cc2cc(OCCN3CCCC3)ccc2n(-c2ccc([N+](=O)[O-])cc2)c1=O > 32 µM

Answer with reported CC50 of CN(C)CCCNc1ccc2cc(C#N)c(=O)n(-c3ccc([N+](=O)[O-])cc3)c2c1 49 µM

###

Below, each entry is listed with its recorded CC50.
Test system: MT4 CMV-EGFP cells
Assay: Cytotoxicity in mock-infected MT4 CMV-EGFP cells
Assay type: cell-based, human
Conditions: fluorescence reduced by 50%

Previously resolved entries follow.
CS(=O)(=O)NCc1cccc(-c2ccc3cc(C#N)c(=O)n(-c4ccc([N+](=O)[O-])cc4)c3c2)c1 [compound 50]    11.8 µM
N#Cc1cc2ccc(OCCCN3CCCCC3)cc2n(-c2ccc([N+](=O)[O-])cc2)c1=O [compound 67]    > 32 µM
CNc1c(C#N)c(=O)n(-c2ccc([N+](=O)[O-])cc2)c2ncccc12 [compound 128]    > 32 µM

Answer with reported CC50 of CC(=O)NCc1cccc(-c2ccc3cc(C#N)c(=O)n(-c4ccc(C)c(C#N)c4)c3c2)c1 [compound 151] > 100 µM

Answer with reported CC50 of N#Cc1cc2ccc(-c3cscn3)cc2n(-c2ccc([N+](=O)[O-])cc2)c1=O [compound 81] > 100 µM

Answer with reported CC50 of CNCCCNc1ccc2cc(C#N)c(=O)n(-c3ccc([N+](=O)[O-])cc3)c2c1 [compound 22] 88.7 µM

###

Assay: Cytotoxicity in mock-infected MT4 CMV-EGFP cells
Format: cell-based, human
Settings: human, fluorescence reduced by 50%
Test readout: CC50 at 3 days

Previously resolved entries follow.
N#Cc1cc2ccc(OCCNCCO)cc2n(-c2ccc([N+](=O)[O-])cc2)c1=O    > 32 µM
N#Cc1cc2ccc(-n3cnnc3)cc2n(-c2ccc([N+](=O)[O-])cc2)c1=O    > 100 µM
N#Cc1cc2ccc(-n3ccnc3)cc2n(-c2ccc([N+](=O)[O-])cc2)c1=O    > 100 µM

Okay, now this compound:
Answer with reported CC50 at 3 days of Cc1ccc(-n2c(=O)c(C#N)c(NCCN)c3ccccc32)cc1C#N 12.9 µM

###

Tested on: MT4 CMV-EGFP cells
Test: Cytotoxicity in mock-infected MT4 CMV-EGFP cells
Format: cell-based, human
Conditions: fluorescence reduced by 50%
Test readout: CC50

Answer with reported CC50 of N#Cc1c(N)c2ccc(Cl)cc2n(-c2ccc(Cl)c(F)c2)c1=O > 100 µM

Answer with reported CC50 of Cc1ccc(-n2c(=O)c(C#N)cc3ccc(-c4cccc(CN(C)C)c4)cc32)cc1C#N 3.95 µM

Answer with reported CC50 of N#Cc1c(N)c2ccc(-c3cscn3)cc2n(-c2ccc([N+](=O)[O-])cc2)c1=O > 100 µM

Answer with reported CC50 of N#Cc1ccc2cc(C#N)c(=O)n(-c3ccc([N+](=O)[O-])cc3)c2c1 > 100 µM

###

Below, each entry is listed with its recorded CC50.
Tested on: MT4 CMV-EGFP cells
Test: Cytotoxicity in mock-infected MT4 CMV-EGFP cells
Format: cell-based, human
Conditions: fluorescence reduced by 50%

Previously resolved entries follow.
N#Cc1cc2ccc(NCc3cccnc3)cc2n(-c2ccc([N+](=O)[O-])cc2)c1=O    > 32 µM
CNc1c(C#N)c(=O)n(-c2ccc(C)c(C#N)c2)c2ccccc12    > 100 µM
N#Cc1cc2ccccc2n(-c2ccc([N+](=O)[O-])cn2)c1=O    > 32 µM

Answer with reported CC50 of N#Cc1cc2ccc(-c3cccnc3)cc2n(-c2ccc([N+](=O)[O-])cc2)c1=O > 100 µM

###

Test system: MT4 CMV-EGFP cells
Assay: Cytotoxicity in mock-infected MT4 CMV-EGFP cells
Type: cell-based, human
Settings: fluorescence reduced by 50%
Test readout: CC50

Previously resolved entries follow.
N#Cc1cc2ccc(-c3ccc(C(=O)O)s3)cc2n(-c2ccc([N+](=O)[O-])cc2)c1=O [compound 47]    > 100 µM
N#Cc1cc2ccc(O)cc2n(-c2ccc(Cl)nc2)c1=O [compound 91]    > 32 µM
N#Cc1cc2ccc(OCCCN3CCCC3)cc2n(-c2ccc([N+](=O)[O-])cc2)c1=O [compound 73]    36.4 µM
N#Cc1cc2ccc(-c3cccc(C(N)=O)c3)cc2n(-c2ccc([N+](=O)[O-])cc2)c1=O [compound 42]    > 100 µM
N#Cc1cc2ccc(-c3cccc(N)c3)cc2n(-c2ccc([N+](=O)[O-])cc2)c1=O [compound 37]    > 100 µM

Okay, now this molecule:
Answer with reported CC50 of N#Cc1cc2ccc(-c3cc[nH]n3)cc2n(-c2ccc([N+](=O)[O-])cc2)c1=O [compound 46] > 100 µM

###

Below, each entry is listed with its recorded pEC50.
Tested on: wild-type HIV-IIIB strain
Assay: Antiviral analysis EGFP: anti-HIV activity in MT4 LTR-EGFP cells
Assay type: cell-based, HIV-1
Details: fluorescence of HIV-infected cells reduced by 50%, three days after infection
Convention used: pEC50 is expressed as -log10 of the molar concentration.

Answer with reported pEC50 of N#Cc1cc2cc3c(cc2n(-c2ccc([N+](=O)[O-])cc2)c1=O)OCO3 5.95

Answer with reported pEC50 of N#Cc1cc2ccc(-c3ccccn3)cc2n(-c2ccc([N+](=O)[O-])cc2)c1=O 6.27

Answer with reported pEC50 of N#Cc1cc2ccc(OCCCN3CCCC3)cc2n(-c2ccc([N+](=O)[O-])cc2)c1=O 6.38

###

Below, each entry is listed with its recorded EC50.
System: wild-type HIV-IIIB strain
Assay: Antiviral analysis EGFP: anti-HIV activity in MT4 LTR-EGFP cells
Assay type: cell-based, HIV-1
Settings: fluorescence of HIV-infected cells reduced by 50%, three days after infection
Write the answer as a number in nM, unit excluded.

Previously resolved entries follow.
Cc1ccc(-n2c(=O)c(C#N)cc3ccc(-c4cccc(CO)c4)cc32)cc1C#N [compound 156]    2580
Cc1ccc(-n2c(=O)c(C#N)c(N)c3ccccc32)cc1C#N [compound 166]    3010
N#Cc1c(NCCO)c2ccccc2n(-c2ccc([N+](=O)[O-])cc2)c1=O [compound 134]    13500
N#Cc1cc2ccc(NCCCN3CCCC3)cc2n(-c2ccc([N+](=O)[O-])cc2)c1=O [compound 21]    210
N#Cc1cc2ccc(-c3cc[nH]c3)cc2n(-c2ccc([N+](=O)[O-])cc2)c1=O [compound 44]    190
N#Cc1cc2ccc(NCC3CCNC3)cc2n(-c2ccc([N+](=O)[O-])cc2)c1=O (stereo not shown) [compound 18]    4430

Answer with reported EC50 of N#Cc1c(N)c2ccc(Cl)cc2n(-c2ccc3nonc3c2)c1=O [compound 113] 2730

Answer with reported EC50 of CNc1c(C#N)c(=O)n(-c2ccc(C)c(C#N)c2)c2ccccc12 [compound 165] 7940

Answer with reported EC50 of N#Cc1cc2ccc(OCCCNCCO)cc2n(-c2ccc([N+](=O)[O-])cc2)c1=O [compound 72] 930

Answer with reported EC50 of N#Cc1cc2ccc(OCCCN3CCOCC3)cc2n(-c2ccc([N+](=O)[O-])cc2)c1=O [compound 56] 1400

Answer with reported EC50 of N#Cc1cc2ccc(-c3cscn3)cc2n(-c2ccc([N+](=O)[O-])cc2)c1=O [compound 81] 150

Answer with reported EC50 of N#Cc1ccc2cc(C#N)c(=O)n(-c3ccc([N+](=O)[O-])cc3)c2c1 [compound 96] 13500

Hey, just so you know, these numbers are from patent US20100087649A1.
